# Target Desc: T1, human CD47ECD mouse Fc protein (human, UniProt Q08722 19-139, limits assumed)
# T1 construct: extracellular domain; also called HuCD47ECD muFc; bivalent CD47ECD muFc protein; not shown: mouse Fc
# T1 sequence (Q08722 19-139 limits assumed): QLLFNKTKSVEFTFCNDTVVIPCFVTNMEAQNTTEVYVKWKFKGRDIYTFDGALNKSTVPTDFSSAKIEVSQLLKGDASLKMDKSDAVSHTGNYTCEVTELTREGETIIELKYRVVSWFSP
# Experiment: SPR (Biacore 3000); antibody captured on anti-human Fc chip, bivalent HuCD47ECD muFc injected
Observation Type: Kd (nM)
// units = nM; emit number, no label

Binder: D8S1 mouse/human chimeric anti-human CD47 antibody (antibody, V domains shown, also called chimeric D8S1) VH: EVQLQQSVAELVRPGASVKLSCTVSGFNIKNTYIYWVKQRPEQGLEWIGRIDPANGNTKDAPKFQGKATMTADTSSNTAYLQLSSLTSEDTAIYYCARGYGSGFAYWGQGTLVTVSA VL: DIQMTQTTSSLSASLGDRVTISCRASQDISNHLNWYQQKPDGIVKLLIYYTSRLHSGVPSRFSGSGSGTDYSLTISNLEQEDIATYFCQQGSTLPFTFGSGTKLEIK
Kd, nM: 0.295
//
Binder: AB6.12, a humanized version of anti-CD47 antibody 2A1 from Celgene (antibody, from another filing, V domains shown) VH: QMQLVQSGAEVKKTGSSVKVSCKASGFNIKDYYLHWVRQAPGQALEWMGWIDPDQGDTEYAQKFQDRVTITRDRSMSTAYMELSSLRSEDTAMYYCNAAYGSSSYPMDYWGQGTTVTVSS VL: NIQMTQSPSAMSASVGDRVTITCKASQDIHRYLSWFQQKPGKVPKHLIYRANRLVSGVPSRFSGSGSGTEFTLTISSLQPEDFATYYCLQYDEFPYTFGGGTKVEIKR
Kd, nM: 0.0479

Would you kindly look at the next entry?
If you can, please state the reported Kd value of D36S4 mouse/human chimeric anti-human CD47 antibody (antibody, V domains shown, also called chimeric D36S4 antibody; D36S4 H/L) VH: EVKLEESGGGLVQPGGSMKLSCVASGFTFSRYWMNWVRQSPDKGLEWVAQIRLKSDNYETHYAESVKGRFTISRDDSKSSVYLQMNNLRAEDTGIYYCIEEGGYYVPFAYWGQGTLVTVSA VL: DIVVSQSPSSLAVSAGEKVTMSCKSSQSLFKSRTRKNYLAWYQQRPGQSPKLLIYWASIRESGVPDRFTGSGSGTEFTLTISSVQAEDLAVYYCKQSYYLLTFGAGTKLELK .
0.0194
